These measurements were taken from ChEMBL document CHEMBL1130279.

UniProt:P23977: recorded pKi for assorted compounds
Sequence (P23977 whole entry): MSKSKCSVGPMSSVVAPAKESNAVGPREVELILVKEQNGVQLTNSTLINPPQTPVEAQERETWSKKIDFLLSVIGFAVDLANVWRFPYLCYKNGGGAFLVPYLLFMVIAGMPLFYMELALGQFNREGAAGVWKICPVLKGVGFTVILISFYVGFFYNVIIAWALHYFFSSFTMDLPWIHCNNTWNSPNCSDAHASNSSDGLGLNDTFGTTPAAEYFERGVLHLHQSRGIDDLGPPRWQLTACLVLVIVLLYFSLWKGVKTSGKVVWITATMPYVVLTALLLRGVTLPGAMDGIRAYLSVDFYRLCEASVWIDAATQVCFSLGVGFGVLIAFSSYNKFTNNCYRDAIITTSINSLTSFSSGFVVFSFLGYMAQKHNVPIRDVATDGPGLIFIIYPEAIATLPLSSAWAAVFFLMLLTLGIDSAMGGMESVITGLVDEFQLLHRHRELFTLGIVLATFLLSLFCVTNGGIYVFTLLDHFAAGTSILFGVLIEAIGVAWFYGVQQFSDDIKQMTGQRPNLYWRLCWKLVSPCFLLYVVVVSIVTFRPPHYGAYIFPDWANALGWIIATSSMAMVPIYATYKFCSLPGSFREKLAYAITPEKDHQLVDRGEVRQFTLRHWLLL
// field semantics: pKi = negative decimal log of concentration (mol/L)

{"compound": "CC[C@@H]1CC2[C@@H](CC(=O)OC)[C@@H](Cc3ccccc3)CC1N2C (stereo in doubt; 19c)", "tgt": "UniProt:P23977", "pKi": 6.51}

Reading of pKi for CCC1CC2C(CC(=O)OC)C(Cc3ccccc3)CC1N2C (stereo in doubt; 22c) with UniProt:P23977: 5.21

COC(=O)CC1=C(Cc2ccccc2)CC2C(Cc3ccccc3)CC1N2C (stereo unspecified) on UniProt:P23977 gives pKi = 5.32

UniProt:P23977 data for CCCC[C@@H]1CC2[C@@H](CC(=O)OC)[C@@H](Cc3ccccc3)CC1N2C (stereo in doubt; 19e) ; its pKi: 5.07

Short answer on UniProt:P23977 for COC(=O)CC1C(Cc2ccccc2)CC2CCC1N2C (stereo unspecified) , pKi: 7.48

Here COC(=O)CC1C(Cc2ccccc2)CC2C(Cc3ccccc3)CC1N2C (stereo unspecified) was tested on UniProt:P23977, and its pKi came to 5.51
